Tested on: TK-10
Test: NCI tumour cell line growth inhibition, 48 h
The source made the active and inactive calls. Rule as the data show it: active = GI50 up to about 1.1 µM and inactive = higher.
Give measured GI50 for each item. Keep answers brief.

Please review the entries below; each comes with its answer.
O=C(NN=C1CCCCC1)Nc1ccccc1Cl    > 100 µM (inactive)
CC12OOC(c3ccccc31)c1c2ccc2ccccc12 (centres undefined)    9.68 µM (inactive)
Cc1ccc2c(c1)-c1c(C#N)c(N)nc(-c3ccc(Cl)cc3)c1CCS2(=O)=O    43.6 µM (inactive)
CCCCCCCc1ccc(-c2nnc(/N=N/c3ccc(OCCCCC)cc3)s2)s1    > 100 µM (inactive)
Cc1cc2c(c(C)c1O)C(C)(C)CN2C(=O)C(C)(C)C    > 100 µM (inactive)
CC1CCC(O)C(C(O)CC2CC(=O)N(C)C(=O)C2)C1 (centres undefined)    > 100 µM (inactive)
O=C(O)Cc1c(-c2ccc([N+](=O)[O-])cc2)c(=O)oc2cc(O)ccc12    33.2 µM (inactive)
Cc1ccc2c(c1)Nc1cc(C(F)(F)F)ccc1[PH]2=O (centres undefined)    57.9 µM (inactive)

# batch: return GI50 for each of the 6 compounds below
1. [N-]=[N+]=Nc1c(C=O)c(=O)n2c3c(cccc13)CCC2
2. CC(C)(C)C(=O)CC(=O)C(C)(C)C.CC(C)(C)C(=O)CC(=O)C(C)(C)C.[SiH4]
3. O=C1c2ccccc2-c2nnc(-c3ccc([N+](=O)[O-])cc3)cc21
4. Cc1ccc(O)c(C2=CC(c3cccc(Br)c3)SC(=N)N2)c1 (centres undefined)
5. C(=C\c1cc(-c2ccc3ccccc3n2)nc2ccc3ccccc3c12)/c1ccc2ccccc2n1
6. COc1ccc2c3c1C(=O)CCC3CO2 (centres undefined)

["4.74 µM (inactive)", "3.4 µM (inactive)", "> 10 µM (inactive)", "19.6 µM (inactive)", "> 100 µM (inactive)", "> 100 µM (inactive)"]

###

System: OVCAR-8
Assay: NCI tumour cell line growth inhibition, 48 h
Active and inactive are the calls of the source. No stated cut-off is given here; in the data, active = GI50 up to about 1.1 µM and inactive = higher.
Entry note: the call must match one of True (active), False (inactive)

These solved cases illustrate the format of a correct answer.
O=C1c2ccccc2/C=C\C(c2ccccc2)=N/N1c1ccccc1Cl    False
N=C(N)N/N=C/c1c(-c2ccc([N+](=O)[O-])cc2)nc2sc(Cl)cn12    True
O=C(Cc1ccccc1)NN1C(=O)C(Cl)C1c1cccc([N+](=O)[O-])c1 (centres undefined)    False
COc1ccc2c(c1)C1=NCCN(C)c3ccc([N+](=O)[O-])c(c31)N2    True

Please indicate how the test categorized COc1ccc(-c2nnc3n(Cc4ccccc4)c4ccccc4n3c2=O)cc1 .
False

Please indicate how the test categorized C=C1C(=O)OC2C/C(C)=C/CC/C(C)=C/CCC3(COC(C)=O)OC3CC12 (centres undefined) .
False

###

Tested on: OVCAR-8
Assay: NCI tumour cell line growth inhibition, 48 h
Calls of active or inactive are those of the source. No stated cut-off is given here; in the data, active = GI50 up to about 1.1 µM and inactive = higher.
Give measured GI50 for each item. Keep answers brief.

Please review the entries below; each comes with its answer.
Cc1nnc2sc(NN)nn12    > 100 µM (inactive)
Cc1nn2c(=O)n(-c3cccc(-n4nnc5c(-c6ccccc6)c(C)nn5c4=O)c3C)nnc2c1-c1ccccc1    24.7 µM (inactive)
O=Cc1cc(C(=O)OCc2ccccc2)n(S(=O)(=O)c2ccccc2)c1    31.9 µM (inactive)
CCC1(CC)C(=O)N(C(=O)c2cc(OC)c(OC)c(OC)c2)N(C(=O)c2cc(OC)c(OC)c(OC)c2)C1=O    > 50 µM (inactive)
CCOP(=O)(Nc1ccccc1P(=O)(OCC)OCC)OCC    > 100 µM (inactive)

# batch: return GI50 for each of the 5 molecules below
1. COc1cc2c(cc1OC)OC(c1c(OC)ccc(OC)c1O)CC2 (stereo not drawn)
2. O=C(O)c1ccc(-c2nc3cc(Cl)ccc3[nH]2)cc1
3. COC(=O)c1c(C#N)[nH]c(-c2ccsc2)c1C(=O)OC
4. COc1cc(/C=N/Nc2nnc3c4ccccc4c4ncccc4c3n2)cc(OC)c1OC
5. C[N+](C)=c1nc(N2CCc3ccccc3C2)ss1.[O-][Cl+3]([O-])([O-])[O-]

1: > 100 µM (inactive); 2: > 100 µM (inactive); 3: > 100 µM (inactive); 4: 2.23 µM (inactive); 5: > 100 µM (inactive)

The values you see were collected from ChEMBL document CHEMBL1201862.
